Experimental protocol: protein stability index of a GFP-peptide fusion (GPS, HEK-293T) (PSI 1-6); higher = more stable;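 further: 24-mer peptide tiles fused after GFP, lentivirally expressed, FACS-sorted into six equal bins by GFP/DsRed ratio, decoded by Illumina sequencing, PSI is the read-weighted mean bin number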
Condition details: treatment: DMSO; c terminus: a fixed tail appended
Think of 3 as a floor: if protein stability index stands on it or above, it is criterion met; beneath it, criterion not met.

Request: hey, is protein stability index for this one >= 3? ARLRPGLAVLGADERIFSLTRRLA [HAGHL]
Result: criterion not met

Request: hey, is protein stability index for this one >= 3? ENCTLVTTFRGHTGGVTALCWDPV [WDFY2]
Result: criterion not met

Request: hey, is protein stability index for this one >= 3? AFAFQNTFPHSISAKNTSHPGSGT [SASS6]
Result: criterion met

Request: hey, is protein stability index for this one >= 3? HESSGNPPLRVIVKDALFCSCLSD [RHOBTB3]
Result: criterion met

Request: hey, is protein stability index for this one >= 3? GSGLSSRFEEPKGPPARQEDSKEL [CBY2]
Result: criterion met

Request: hey, is protein stability index for this one >= 3? PETLPESSLFSVEANSSNSQKNEK [C8orf76]
Result: criterion met

Request: hey, is protein stability index for this one >= 3? KMDFKTNILLKNLVTIARKASLWQ [TRIM43]
Result: criterion not met

Request: hey, is protein stability index for this one >= 3? SRPSAPFTEASMMMSLTKLADKEL [ESR2]
Result: criterion met

Request: hey, is protein stability index for this one >= 3? VAPADVRRLLSYCKGRDHGVLDAL [ZSWIM9]
Result: criterion not met

Request: hey, is protein stability index for this one >= 3? ELLCELGRPSMVWLSANPCPHCGD [PRAME]
Result: criterion not met

Request: hey, is protein stability index for this one >= 3? QHTPDQANSDRASIGRRRTELRRS [PLEKHN1]
Result: criterion met

Request: hey, is protein stability index for this one >= 3? MHDMLLEELAPVGTAHIPPTMHLE [ZNF449]
Result: criterion met

Request: hey, is protein stability index for this one >= 3? LLRRSVEGASSDNGCEVKNRKSIL [PHTF1]
Result: criterion met

###

Kindly supply the reported protein stability index values for the records listed here.
Experimental protocol: protein stability index of a GFP-peptide fusion (GPS, HEK-293T) (PSI 1-6); higher = more stable
Condition details: treatment: DMSO; c terminus: a fixed tail appended
Number, no unit, nothing else.

Request: Would you mind telling me what protein stability index value was observed for MQSLDDATKQLDFTRKTLAEKKQE [SASS6] ?
Result: 5.12

Request: Would you mind telling me what protein stability index value was observed for DFVMSLTFPFKILGDSGLGPWQLN [P2RY14] ?
Result: 3

Request: Would you mind telling me what protein stability index value was observed for EEEAASPEGKRVPKRLRCWEEEED [FANCE] ?
Result: 5.4

Request: Would you mind telling me what protein stability index value was observed for ADIDHDQALAQAIKEAKEQHPDMS [EPB41L3] ?
Result: 5.56

Request: Would you mind telling me what protein stability index value was observed for QFTKPNASLGDVQSGATISMPCST [SASS6] ?
Result: 4.14

Request: Would you mind telling me what protein stability index value was observed for SAEYVGHLRATEKMKTRELHRESS [HDAC6] ?
Result: 4.62

Request: Would you mind telling me what protein stability index value was observed for SMRLLESKKGLSFFAFEHSEEYQQ [TCF25] ?
Result: 3.35

Request: Would you mind telling me what protein stability index value was observed for SWVDDTPFNKVQSARFWIPGEPNN [CD207] ?
Result: 2.44

Request: Would you mind telling me what protein stability index value was observed for LAALCLAGPPAPARACQLPSEWRP [CCDC3] ?
Result: 2.96

Request: Would you mind telling me what protein stability index value was observed for KRKEEECSTTDHPYKKPYMETSPS [TBX5] ?
Result: 5.09

Request: Would you mind telling me what protein stability index value was observed for SGLLEELNAEAGHLDPGFLASDKT [C18orf25] ?
Result: 4.96

Request: Would you mind telling me what protein stability index value was observed for QKLADLRSLNEEHSKQYRCLSFQP [VDR] ?
Result: 3.07

Request: Would you mind telling me what protein stability index value was observed for HHLDEDEERERIERVRRIHIKRPD [KCTD10] ?
Result: 5.09

###

Kindly supply the reported protein stability index values for the records listed here.
Experimental protocol: protein stability index of a GFP-peptide fusion (GPS, HEK-293T) (PSI 1-6); higher = more stable
Condition details: treatment: DMSO; c terminus: a fixed tail appended
Number, no unit, nothing else.

Request: Would you mind telling me what protein stability index value was observed for LTPADKAEHMKRQRHPRLRPQSAQ [AUP1] ?
Result: 4.36

Request: Would you mind telling me what protein stability index value was observed for IVLAACSDYFCAMFTSELSEKGKP [KLHL12] ?
Result: 2.76

Request: Would you mind telling me what protein stability index value was observed for LLRPKYRAPQGCSGVDECARQEGL [PBXIP1] ?
Result: 3.56

Request: Would you mind telling me what protein stability index value was observed for QQPPQQQPSQQQQPPPQEEPGTPS [KLHL14] ?
Result: 5.67

Request: Would you mind telling me what protein stability index value was observed for KLVHFLLLKYRAREPVTKAEMLGS [MAGEA6] ?
Result: 2.81

Request: Would you mind telling me what protein stability index value was observed for GASSCDGCKGFFRRSVRKNHMYSC [HNF4A] ?
Result: 2.36

Request: Would you mind telling me what protein stability index value was observed for QVLKKIAQKALDLPSSGEGLAFFT [HMOX1] ?
Result: 2.57

Request: Would you mind telling me what protein stability index value was observed for RVEDAFYTLVREIRQYRLKKISKE [KRAS] ?
Result: 2.3

Request: Would you mind telling me what protein stability index value was observed for IEVFRRKRKMHLVFEYCDHTLLNE [CDKL4] ?
Result: 2.54

Request: Would you mind telling me what protein stability index value was observed for QVAFGSLYRDDVLIKPSRVVAILA [GMCL1] ?
Result: 2.38

Request: Would you mind telling me what protein stability index value was observed for KKHKNSQLDKNSEVYQEVQAMFDT [FAM98B] ?
Result: 4.31

Request: Would you mind telling me what protein stability index value was observed for DMVQKSVSKTLPSTWSDPSVNISL [CLINT1] ?
Result: 3.04

Request: Would you mind telling me what protein stability index value was observed for LQTDHYAALLGSNSESWGWDIGRG [SPSB2] ?
Result: 3

###

Kindly supply the reported protein stability index values for the records listed here.
Experimental protocol: protein stability index of a GFP-peptide fusion (GPS, HEK-293T) (PSI 1-6); higher = more stable
Condition details: treatment: MLN4924 1 uM, 8 h; c terminus: native
Number, no unit, nothing else.

Request: Would you mind telling me what protein stability index value was observed for GRREGCDICAGKAGCPIVEEPLG [RPS21] ?
Result: 4.33

Request: Would you mind telling me what protein stability index value was observed for ERELLGQDEETAMRKSLGEEELS [RSPH3] ?
Result: 5.58

Request: Would you mind telling me what protein stability index value was observed for VSLGQKLVAAYVLGLLTMVFLRT [MOSPD3] ?
Result: 2.07

Request: Would you mind telling me what protein stability index value was observed for "RKQLQPTHCKYEGPRKARRLWFA" ?
Result: 3.04

Request: Would you mind telling me what protein stability index value was observed for EFSVPFTEMKLRPRNFRSPAGGG [TNXB] ?
Result: 3.09

Request: Would you mind telling me what protein stability index value was observed for RYFPAGNVVNEGFFEENVLPPKK [GLIPR2] ?
Result: 4.59

Request: Would you mind telling me what protein stability index value was observed for EVEGTKPSATEMIWAVLAAFNKS [GOLPH3L] ?
Result: 2.4

Request: Would you mind telling me what protein stability index value was observed for "VHTGCHKKLGPEARRPRTRWGKN" ?
Result: 3.08
